B1: Glucocorticoid receptor, residues 419 to 494; numbered along this chain, P04150 (parent)
chain: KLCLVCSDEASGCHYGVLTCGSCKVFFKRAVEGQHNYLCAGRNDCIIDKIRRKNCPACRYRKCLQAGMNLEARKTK

Variants of: B1
Experiment: abundance fitness (aPCA) (normalised: wild type 0, dead -1); higher = more abundant; growth selection in yeast, the domain comes from the species named
Conditions: Homo sapiens
Measurement Kind: abundance fitness

Recorded abundance fitness of `KLCLVCSDEASGCHYGVLTCGSCKVFFKRAVEGQHNYLCAGRNDCIIDKIRRKNCPACRYRKCLQAGMNLEYRKTK` , please.
0.011

Entry `KLCLVCSDEASGCHYGVLTCGSCKVFFKRAVEGQHNYLCAGRNDCIIDKIRRKNCPACRGRKCLQAGMNLEARKTK` has what abundance fitness?
-0.809

abundance fitness for `KLCLVCSDEASGCHYGVLTCGSCKVFFKRAVEGQHNYLCAGRNDCIIVKIRRKNCPACRYRKCLQAGMNLEARKTK` ?
-0.596

Could you share which abundance fitness value was measured for `KLCLVCSDEASGCHYGVLTCGSCKVFFKRAVEGQHNYLCAGRNDCIIDKIMRKNCPACRYRKCLQAGMNLEARKTK` ?
0.042

Given the entry `KLCLVCSDEASGCHYGVLTCGSCKVFFKRAVEGQHNYLCAGRNDCIIDKIRRKNCPACRYIKCLQAGMNLEARKTK` , report its measured abundance fitness.
-0.083

Could you share which abundance fitness value was measured for `KLCLVCSDEASGCHYGVLTCGSCKVFFKRAVEGQHNYLCAGRNDCIIDKIRRTNCPACRYRKCLQAGMNLEARKTK` ?
-0.024

Entry `KLCLVCSDEASGCHHGVLTCGSCKVFFKRAVEGQHNYLCAGRNDCIIDKIRRKNCPACRYRKCLQAGMNLEARKTK` has what abundance fitness?
-0.088

I am curious: what abundance fitness value has been reported for `KLCYVCSDEASGCHYGVLTCGSCKVFFKRAVEGQHNYLCAGRNDCIIDKIRRKNCPACRYRKCLQAGMNLEARKTK` ?
-0.029

Consider the variant `KLCLVCSDEASGCHYGVLTCGSCKVFFKRAVEGQHNYLCAGRNDCIIDKIRRKNHPACRYRKCLQAGMNLEARKTK` and give its measured abundance fitness.
-0.911

// lookup abundance fitness for `KICLVCSDEASGCHYGVLTCGSCKVFFKRAVEGQHNYLCAGRNDCIIDKIRRKNCPACRYRKCLQAGMNLEARKTK`
0.114
